Target: LftR (Listeria monocytogenes, UniProt L8DXR9)
Construct: full length, 108 residues, expressed in E. coli; homodimer
Sequence (L8DXR9 entry or part of it): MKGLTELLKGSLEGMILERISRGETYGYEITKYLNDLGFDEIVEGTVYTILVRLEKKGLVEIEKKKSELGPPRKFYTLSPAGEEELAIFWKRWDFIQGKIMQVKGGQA
Test: fluorescence polarization assay
MEASURED PARAMETER: Kd (µM)
Just the number please, in µM, no unit attached.

Form field Kd, entry CC[n+]1c(-c2ccccc2)c2cc(N)ccc2c2ccc(N)cc21 [ethidium bromide] : 3.7

Cited source: paper PMC6457526
